Test: in vivo
Settings: rat, po, 50 mg/kg
RECORDED METRIC: Cmax at 14 day (ng/mL)

# SMILES STR, DATA VALUE
measured = [
    ("C[C@H](NS(=O)(=O)c1ccc(-c2sc(C(=O)NCC(C)(C)O)nc2C(=O)N2CCC(F)CC2)c(Cl)c1Cl)C(F)(F)F", 417),
]

----------
Experiment: in vitro
Conditions: rat, microsomes
# half-life listing for each entry below
RECORDED METRIC: half-life (min)

# SMILES STR, RECORDED METRIC, UNIT OF MEASURE, OP, DATA VALUE
records = [
    ("CC(C)(O)CNC(=O)c1nc(CC2CCCCC2)c(-c2ccc(S(=O)(=O)NC(C)(C)C)c3ccccc23)s1", "half-life", "min", "=", 47),
    ("C[C@H](NS(=O)(=O)c1ccc(-c2sc(C(=O)NCC(C)(C)O)nc2C(=O)N2CCC(F)CC2)c(Cl)c1Cl)C(F)(F)F", "half-life", "min", ">", 180),
    ("C[C@H](NS(=O)(=O)c1ccc(-c2sc(C(=O)NCC(C)(C)O)nc2C(=O)N2CCCC[C@@H]2C)c(Cl)c1Cl)C(F)(F)F", "half-life", "min", "=", 49),
    ("CC[C@H](NS(=O)(=O)c1ccc(-c2sc(C(=O)NCC(C)(C)O)nc2C(=O)N(CC)CC)c(Cl)c1Cl)C(F)(F)F", "half-life", "min", ">", 180),
    ("C[C@H](NS(=O)(=O)c1ccc(-c2sc(C(=O)NCC(C)(C)O)nc2C(=O)N2CC[C@H](F)C[C@@H]2C)c(Cl)c1Cl)C(F)(F)F", "half-life", "min", "=", 68),
    ("CC(C)(O)CNC(=O)c1nc(C(=O)N2CCCCC2)c(-c2ccc(S(=O)(=O)NC(C)(C)C)c3ccccc23)s1", "half-life", "min", "=", 12),
    ("C[C@H](NS(=O)(=O)c1ccc(-c2sc(NC(=O)CC(C)(C)O)nc2C(=O)N2CCC(F)CC2)c(Cl)c1Cl)C(F)(F)F", "half-life", "min", "=", 147),
]
